Reported 100 nM L1 values for a set of binders
- target or test system: L1 (DV1-GV4) (human)
- Sequence (chain, as listed by the source, chain 1 of 2): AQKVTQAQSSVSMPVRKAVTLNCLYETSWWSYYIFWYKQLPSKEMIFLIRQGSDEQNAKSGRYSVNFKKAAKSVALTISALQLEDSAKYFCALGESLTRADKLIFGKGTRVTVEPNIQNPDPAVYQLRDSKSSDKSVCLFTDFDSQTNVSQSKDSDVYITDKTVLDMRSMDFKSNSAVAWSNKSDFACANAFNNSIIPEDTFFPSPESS
- Sequence (chain, as listed by the source, chain 2 of 2): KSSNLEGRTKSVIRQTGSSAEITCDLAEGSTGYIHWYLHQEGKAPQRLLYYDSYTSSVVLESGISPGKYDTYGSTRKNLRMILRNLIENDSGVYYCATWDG
- experimental protocol: DELFIA affinity ranking, signal with 100 nM biotinylated L1
Would you mind answering with just the numeric figure?

Recorded 100 nM L1, per entry:
- binder: "1245_P02_G04 scFv (scFv) scFv: QVQLQQSGPGLVKPSQTLSLTCAISGDSVSSKSAAWNWIRQSPSRGLEWLGRTYYRSKWSTDYAASVKSRITINPDTSKNQLSLQLNSVTPEDTAVYYCARTWSGYVDVWGQGTLVTVSSGGGGSGGGGSGGGASDIQMTQSPPALSASVGDRVTITCRASQDINDWLAWYQHKPGKAPKLLIYDASSLESGVPSRFSGSGSGTEFTLTISSLQPDDFATYYCQQSYSTPQVTFGQGTRLEIK"
  recorded endpoint: "100 nM L1"
  observed value: 5900
- binder: "1251_P02_G10 scFv (scFv) scFv: EVQLVESGGGLVQPGGSLRLSCAASGFTFSDYYMSWIRQAPGKGLEWVSYISSSGSTIYYADSVKGRFTISRDNAKNSLYLQMNSLRAEDTAVYYCARHSWNDAFDIWGRGTLVTVSSGGGGSGGGGSGGGASDIQMTQSPSSLSASVGDRVTITCRASQSISSHLNWYQQKPGKAPKLLIYAASSLQSGVPSRFSASGSGTDFTLTISSLQPEDFATYYCQQSYSTLLTFGGGTKVEIK"
  recorded endpoint: "100 nM L1"
  observed value: 17100
- binder: "1251_P02_C05 scFv (scFv) scFv: EVQLLESGGGLVQPGGSLRLSCAASGFTFSSYAMSWVRQAPGKGLEWVSAISGGGGTTYSSDSVKGRFTISRDNSKNTLYLQMNSLRAEDTAVYYCARDSGVAFDIWGQGTLVTVSSGGGGSGGGGSGGGASDIQMTQSPSFLSASVGDRVTITCRASQNIRTWLAWYQQKPGRAPKLLIYDASSLESGVPSRFSGSGSGTDFTLTISSLQPEDFATYYCQQFKRYPPTFGLGTKVEIK"
  recorded endpoint: "100 nM L1"
  observed value: 65300
- binder: "1245_P01_G09 scFv (scFv) scFv: QVQLQQSGPGLVKPSQTLSLTCAISGDSVSSNSAAWNWIRQSPSRGLEWLGRTYYGSKWYNEYALSVKSRIIINPDTSKNQFSLQLNSVTPEDTAVYYCARDYYYSMDVWGQGTLVTVSSGGGGSGGGGSGGGASDIVMTQSPSTLSASIGDRVTITCRAGQSISTWLAWYQQKPGKAPKLLIYDASSLESGVPLRFSGSGSGTEFTLAISSLQPDDFATYYCQQSYSTPVTFGQGTKVEIK"
  recorded endpoint: "100 nM L1"
  observed value: 18400
- binder: "1245_P02_F07 scFv (scFv) scFv: QVQLQQSGPGLVKPSQTLSLTCVISGDSVSSNSAAWNWIRQSPSRGLEWLGRTYYRSKWYNDYAVSVKSRITINPDTSKNQFSLQLNSVTPEDTAVYYCARDYYYSMDVWGQGTMVTVSSGGGGSGGGGSGGGASDIQMTQSPSTLSASVGDRVTITCRASQSISSWLAWYQQKPGKAPKLLIYDASSLESGVPLRFSGSGSGTEFTLTISSLQPDDFATYYCQQSHSHPPTFGPGTKVDIK"
  recorded endpoint: "100 nM L1"
  observed value: 10400

Find the recorded 100 nM L1 belonging to 1139_P01_E04 scFv (scFv) scFv: QVQLQQSGPGLVKPSQTLSLTCAISGDSVSSNSAAWNWIRQSPSRGLEWLGRTYYRSKWYNDYAVSVRSRITINPDTSKNQFSLQLNSVTPEDTAVYYCARSWNDAFDIWGQGTTVTVSSGGGGSGGGGSGGGASDIVMTQSPSTLSASIGDRVTITCRAGQSISTWLAWYQQKPGKAPKLLIYDASSLESGVPLRFSGSGSGTDFTLTISSLQPEDFATYYCQQSYSTPLTFGGGTKVEIK and report it.
23800

How about this binder: 1245_P01_E07 scFv (scFv) scFv: QVQLVESGGGLVKPGGSLRLSCAASGFTFSDYYMSWIRQAPGKGLEWVSYISSSGSTIYYADSVKGRFTISRDNAKNSLYLQMNSLRAEDTAVYYCARVDYADAFDIWGQGTLVTVSSGGGGSGGGGSGGGASDIQMTQSPSSLSASVGDRVTIACRAGQSIGTYLNWYQQKPGKAPKLLIYVASSLQSGVPSRFSGSGSGTEFTLTISSLQPEDFATYYCQQSYSTLLTFGRGTKVEIK
163000

Entry 1141_P01_E01 scFv (scFv) scFv: QVQLVQSGAEVKKPGESLKISCKGSGYSFTSYWIGWVRQMPGKGLEWMGIIYPGDSDTRYSPSFQGQVTISADKSISTAYLQWSSLKASDTAMYYCARHQVDTRTADYWGQGTLVTVSSGGGGSGGGGSGGGASQSALTQPASVSGSPGQSVTISCTGTRSDVGGYNYVSWYQHHPGKAPKLMIYEVSNRPSGVSNRFSGSKSGNTASLTISGLQAEDEADYYCSSYTSTSTLVFGGGTKLTVL please
137000

Follow-up item: 1252_P01_C08 scFv (scFv) scFv: EVQLLESGGGLVQPGRSLRLSCAASGFTVSSNYMSWVRQAPGKGLEWVSVIYSGGSTYYADSVKGRFTISRDNSKNTLYLQMNSLRAEDTAVYYCASPIELGAFDIWGQGTLVTVSSGGGGSGGGGSGGGASSYELTQPPSVSVAPGKTARITCGGNNIGSQSVHWYQQKPGQAPMLVIYYDSDRPSGIPERFSGSNSGNTATLTISRVEAGDEADYYCQVWDSSSDHVVFGGGTKLTVL
1980
